Biological target: Alpha-bungarotoxin (Bungarus multicinctus) (UniProt P60615)
Sequence (P60615 whole entry, looked up): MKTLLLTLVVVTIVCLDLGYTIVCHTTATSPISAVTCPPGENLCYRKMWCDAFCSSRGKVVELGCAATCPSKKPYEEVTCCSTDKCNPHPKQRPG
Assay: compounds binding labelled alpha-BTX control protein – biochemical, small-molecule microarray, Alexa647 label, 635/667 nm fluorescence, artefact control for SMM control protein annotation, profiling panel (AID 1117)
Settings: alpha-BTX-A647 binding fluorescence, higher = more signal
# composite z-score >= 0.8 gives MET, anything below gives NOT MET

Reference set (3 entries):
| molecule | class.assignment |
| --- | --- |
| CC(=O)NCCCC[C@@H]1NC(=O)[C@H]2C[C@@H](C(=O)O)[C@@H](c3ccc(O)cc3)N2C1=O | NOT MET |
| CCCCN1CC=CC23O[C@@H]4/C=C\CCCOC(=O)C4[C@H]2C(=O)N(CCCO)[C@@H]3C1=O (stereo not given in full) | NOT MET |
| COC(=O)[C@@]1(Cc2ccc(OC)cc2)[C@H]2c3cc(C(=O)N4CCCC4)n(CCc4ccc(O)c(O)c4)c3C[C@H]2CN1C(=O)c1ccccc1 | NOT MET |

I'd appreciate it if you could say whether `O=C(NCc1ccccc1)[C@@H]1c2ccccc2C(=O)N(C2Cc3ccccc3C2)[C@H]1c1ccc(CO)cc1` has composite z-score at least equal to 0.8.
MET

Does the reported composite z-score for `C=CC[C@@]1(C(=O)N2CCCCC2)N=C(c2ccc(OCCCO)cc2)O[C@@H]1c1ccccc1CN=[N+]=[N-]` fall at or above the 0.8 mark?
MET

Does the molecule CN1C(=O)C2C=CC(C(O)c3ccc(F)cc3)N(N(c3ccccc3)c3ccccc3)C2C1=O (stereo not given) have recorded composite z-score that is 0.8 or more?
NOT MET

Is composite z-score for `NC(=O)[C@@H]1[C@H]2C(=O)O[C@H](c3ccccc3)[C@H](c3ccccc3)N2[C@H](c2ccc(OCCO)cc2)[C@@]12C(=O)Nc1ccc(C#CC3=CCCCC3)cc12` at or above 0.8?
NOT MET

# check: composite z-score of `[N-]=[N+]=NCc1ccccc1[C@H]1OC(c2ccc(OCCCO)cc2)=N[C@@]1(Cc1ccccc1)C(=O)N1CCCCC1` is greater than or equal to 0.8
MET

Decide: is the reported value of composite z-score for `COc1cc2c(cc1O)C=[N+](Cc1cc3c(cc1Br)OCO3)CC2` equal to or greater than 0.8?
NOT MET

Could you verify whether the entry `C=CCNC(=O)[C@@H]1[C@H]2C(=O)O[C@H](c3ccccc3)[C@H](c3ccccc3)N2[C@H](c2ccc(OCCO)cc2)[C@@]12C(=O)N(C(=O)OCCOC)c1ccc(C#CCNC(N)=O)cc12` shows composite z-score of no less than 0.8?
MET

Determine whether this molecule has composite z-score no lower than 0.8: CCCCC(O)C1C=CC2C(=O)N(C)C(=O)C2N1N1CCCCC1 (stereo not given)
MET

Record `COC(=O)[C@@]1(Cc2ccc(OC)cc2)[C@H]2c3cc(C(=O)N4CCCC4)n(Cc4nc5ccccc5[nH]4)c3C[C@H]2CN1C(=O)c1ccccc1` ; criterion: composite z-score no lower than 0.8. Met?
MET

# check: composite z-score of `COc1ccccc1CN1C(=O)c2ccccc2[C@@H](C(=O)NCc2ccccc2)[C@@H]1c1ccc(CO)cc1` is greater than or equal to 0.8
MET

Entry `COC(=O)C(CC#Cc1ccc2c(c1)[C@]1(C(=O)N2)[C@H](c2ccccc2OCCO)N2[C@H](c3ccccc3)[C@H](c3ccccc3)OC(=O)[C@H]2[C@@H]1C(=O)O)C(=O)OC` : is its composite z-score no less than 0.8?
MET

Exam item: decide whether the reported composite z-score for `COC(=O)c1c2oc(c1C(=O)OC)C(=O)NC1(CCCCC1)c1cn(nn1)C[C@H](Cc1ccccc1)NC(=O)N[C@H](CO)CC2` is at least 0.8.
NOT MET

Hi team, for `COc1ccc([Si](C)(C)[C@@H]2[C@@H](CCO)O[C@]3(C(=O)N(Cc4cccc(N5CCOC5=O)c4)c4ccccc43)[C@H]2C)cc1` , is the recorded composite z-score at or above 0.8?
MET

Could you please find out whether N#Cc1ccc(C(O)C2C=CC3C(=O)N(c4ccccc4)C(=O)C3N2Nc2ccccc2F)cc1 (stereo not given) has composite z-score that meets 0.8 or exceeds it?
NOT MET

Answer whether composite z-score of `COC(=O)[C@@]1(Cc2ccccc2)[C@H]2c3cc(C(=O)N(C)C)n(Cc4ccc(OC)c(OC)c4)c3C[C@H]2CN1C(=O)c1ccccc1` is greater than or equal to 0.8.
MET

Hello, I need to know if `CCOC(=O)[C@H]1C/C=C/C[C@H](C(=O)OCC)C(=O)O[C@H]2[C@@H](OC)O[C@H](CO)[C@@H](OC(=O)c3ccc(Br)cc3)[C@@H]2OC1=O` has measured composite z-score not below 0.8. Thanks!
NOT MET

Sourced from PubChem BioAssay
